Experiment: activity coefficient (dimensionless); of the first substance listed, at infinite dilution; xn = mol fraction of the nth substance listed
Settings: 323.15 K; 101 kPa; Liquid; Chromatography; x1 = 0
Listed here are compounds together with their documented activity coefficient.
Number only, please.

Below, 6 compounds whose answers are already recorded.
C1CCOC1 [tetrahydrofuran] + CCCC[N+]1(C)CCCC1.N#C[B-](C#N)(C#N)C#N    0.632
CCc1ccccc1 [ethylbenzene] + CCCC[N+]1(C)CCCC1.N#C[B-](C#N)(C#N)C#N    1.66
FC(F)(F)C(Cl)Br (stereo not drawn) [1-bromo-1-chloro-2,2,2-trifluoroethane] + CCCC[N+]1(C)CCCC1.N#C[B-](C#N)(C#N)C#N    0.869
COC(=O)OC [dimethyl carbonate] + CCCC[N+]1(C)CCCC1.N#C[B-](C#N)(C#N)C#N    0.529
CC1CCCCC1 [methylcyclohexane] + CCCC[N+]1(C)CCCC1.N#C[B-](C#N)(C#N)C#N    11.8
COC(C)=O [methyl ethanoate] + CCCC[N+]1(C)CCCC1.N#C[B-](C#N)(C#N)C#N    0.678

query: I would be grateful if you could share the reported activity coefficient for Cc1cccc(C)c1 [1,3-dimethylbenzene] + CCCC[N+]1(C)CCCC1.N#C[B-](C#N)(C#N)C#N .
result: 1.64

query: Now try CC(C)=O [acetone] + CCCC[N+]1(C)CCCC1.N#C[B-](C#N)(C#N)C#N .
result: 0.45

----------
The reader will find reported activity coefficient values listed item by item below.
Experiment: activity coefficient (dimensionless); of the first substance listed, at infinite dilution; xn = mol fraction of the nth substance listed
Conditions: 353.15 K; 101 kPa; Liquid; Chromatography; x1 = 0
Give the value as a plain number.

Take a look at these entries with their results.
CC#N [acetonitrile] + CCCC[N+]1(C)CCCC1.N#C[B-](C#N)(C#N)C#N    0.43
CCCCCCC [heptane] + CCCC[N+]1(C)CCCC1.N#C[B-](C#N)(C#N)C#N    18.5
COCCOC [1,2-dimethoxyethane] + CCCC[N+]1(C)CCCC1.N#C[B-](C#N)(C#N)C#N    0.628

query: I would be grateful if you could share the reported activity coefficient for ClC(Cl)Cl [trichloromethane] + CCCC[N+]1(C)CCCC1.N#C[B-](C#N)(C#N)C#N .
result: 0.711

----------
Test: activity coefficient (dimensionless); of the first substance listed, at infinite dilution; xn = mol fraction of the nth substance listed
Conditions: 363.15 K; 101 kPa; Liquid; Chromatography; x1 = 0
Below is a list of entries, each paired with its recorded activity coefficient value.
I only need the number, thanks.

In the examples that follow, each entry is paired with its recorded activity coefficient.
Cc1cccc(C)c1 [1,3-dimethylbenzene] + CCCC[N+]1(C)CCCC1.O=C1O[B-]2(OC1=O)OC(=O)C(=O)O2    3.64
CCC(C)=O [butanone] + CCCC[N+]1(C)CCCC1.O=C1O[B-]2(OC1=O)OC(=O)C(=O)O2    1.11
ClCCl [dichloromethane] + CCCC[N+]1(C)CCCC1.O=C1O[B-]2(OC1=O)OC(=O)C(=O)O2    0.789
CCc1ccccc1 [ethylbenzene] + CCCC[N+]1(C)CCCC1.O=C1O[B-]2(OC1=O)OC(=O)C(=O)O2    3.65
c1ccccc1 [benzene] + CCCC[N+]1(C)CCCC1.O=C1O[B-]2(OC1=O)OC(=O)C(=O)O2    1.6

query: Item C[N+](=O)[O-] [nitromethane] + CCCC[N+]1(C)CCCC1.O=C1O[B-]2(OC1=O)OC(=O)C(=O)O2 has what recorded activity coefficient?
result: 0.436

query: Another molecule: C=CCCCCCC [oct-1-ene] + CCCC[N+]1(C)CCCC1.O=C1O[B-]2(OC1=O)OC(=O)C(=O)O2
result: 31.5

query: What do you get for CCC1CCCCC1 [ethylcyclohexane] + CCCC[N+]1(C)CCCC1.O=C1O[B-]2(OC1=O)OC(=O)C(=O)O2 ?
result: 29.7

query: Queued: CCOC(C)=O [ethyl acetate] + CCCC[N+]1(C)CCCC1.O=C1O[B-]2(OC1=O)OC(=O)C(=O)O2
result: 1.73

query: Then CCO [ethanol] + CCCC[N+]1(C)CCCC1.O=C1O[B-]2(OC1=O)OC(=O)C(=O)O2 ?
result: 1.49

query: Now the molecule CCCCCCCC [octane] + CCCC[N+]1(C)CCCC1.O=C1O[B-]2(OC1=O)OC(=O)C(=O)O2
result: 61.9

query: Please answer likewise for CCCCCCC [heptane] + CCCC[N+]1(C)CCCC1.O=C1O[B-]2(OC1=O)OC(=O)C(=O)O2
result: 44.7

query: Also check c1ccsc1 [thiophene] + CCCC[N+]1(C)CCCC1.O=C1O[B-]2(OC1=O)OC(=O)C(=O)O2
result: 1.13

query: Another molecule: CO [methanol] + CCCC[N+]1(C)CCCC1.O=C1O[B-]2(OC1=O)OC(=O)C(=O)O2
result: 1.05

query: Try this molecule next: COC(=O)OC [dimethyl carbonate] + CCCC[N+]1(C)CCCC1.O=C1O[B-]2(OC1=O)OC(=O)C(=O)O2
result: 0.877

query: Entry COC(C)(C)C [2-methoxy-2-methylpropane] + CCCC[N+]1(C)CCCC1.O=C1O[B-]2(OC1=O)OC(=O)C(=O)O2 please
result: 5.7

query: Queued: CC(C)OC(C)C [diisopropyl ether] + CCCC[N+]1(C)CCCC1.O=C1O[B-]2(OC1=O)OC(=O)C(=O)O2
result: 15.1

query: Next molecule up: CC1CCCCC1 [methylcyclohexane] + CCCC[N+]1(C)CCCC1.O=C1O[B-]2(OC1=O)OC(=O)C(=O)O2
result: 21.6
